Target: T1, 4H1593-AA
T1 chain: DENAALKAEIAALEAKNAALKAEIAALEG
Test: two-hybrid library CCmax;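 also: natural log of median RNA to DNA barcode read ratio; higher means stronger binding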
Conditions: mean of both orientations
Quantity kind: interaction score
Give only the figure.

Solved cases below.
                                     binder      quantity_kind  result_number
0  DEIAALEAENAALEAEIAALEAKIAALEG [4H133-AA]  interaction score         -0.948
1  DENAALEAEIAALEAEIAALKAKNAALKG [4H1040-AA]  interaction score          -1.27
2  DENAALEAENAALKAKIAALKAKIAALKG [4H1262-AA]  interaction score          -1.34

(Q) Provide only the value of recorded interaction score for DENAALEAKNAALEAKIAALKAEIAALEG [4H1449-AA]
(A) -1.66

(Q) Provide only the value of recorded interaction score for DENAALEAKIAALKAEIAALEAKIAALEG [4H1349-AA]
(A) 0.813

(Q) Provide only the value of recorded interaction score for DENAALEAKIAALKAKIAALEAKNAALKG [4H1384-AA]
(A) -1.48
